Let's go through some recorded IC50 values for C-C chemokine receptor type 6 (Homo sapiens) (UniProt P51684) together.

# count of solved cases: 2
>>> experimental_result("CCCCCCCCCCCCC/C=C/[C@@H](O)[C@@H](N)CO")
"20.9 µM"
>>> experimental_result("Cc1cccc2c1N(CCCOc1ccc(C(C)(C)C)cc1)C(=O)C2=O")
"> 66.6 µM"

Next molecule, please.
The reported C-C chemokine receptor type 6 (Homo sapiens) (UniProt P51684) IC50 of O=C1C2C3C=CC(CO)(O3)C2C(=O)N1c1ccccc1-c1ccccc1 (stereo not drawn) is > 66.6 µM

----------
system.tested: C-C chemokine receptor type 6 (Homo sapiens)
protocol.notes: CXCR5 receptor antagonists, SAR follow-up, selectivity assay for CCR6 antagonist project, cell-based, beta-arrestin, luminescence, CHO-K1 PathHunter (AID 540340)
condition.notes: CCR6 beta-arrestin antagonism, AID540334
readout.name: IC50 (µM)
Answer with a number only, understood to be in µM.

>>> experimental_result("C/C=C(\\C)C(=O)OC1[C@H](OC(C)=O)C2(CO)C(CC1(C)C)C1=CCC3C4(C)CCC(O[C@@H]5O[C@H](C(=O)O)[C@@H](O[C@@H]6O[C@H](CO)[C@@H](O)[C@H](O)[C@H]6O)[C@H](O)[C@H]5O[C@H]5O[C@H](CO)[C@@H](O)[C@H](O)[C@H]5O)[C@](C)(CO)C4CCC3(C)[C@]1(C)C[C@H]2O (stereo partly drawn)")
7.82

Next compound, please.
Lookup result for Cn1c(O)c(C2=NNC(c3ccc(Cl)cc3)C2)c(=O)n(C)c1=O (stereo not drawn) ; measured IC50: 5.84
